# Experiment description: protein stability index of a GFP-peptide fusion (yeast GPS) (PSI 1-4); higher = more stable; sorted into four equal gates, so the index is relative within each strain
# Details: doa10∆
# label = criterion met if protein stability index >= 3 else criterion not met

Solved entries (count: 3):
[
  {
    "Query sequence": "LRAIEKNDDNSCRNPEH [YIL149C/MLP2]",
    "Cat": "criterion met"
  },
  {
    "Query sequence": "KVSKNSTSFKNPRRLEI [YMR153W/NUP53]",
    "Cat": "criterion not met"
  },
  {
    "Query sequence": "YNNKVGVAASQGSMSER [SIR2]",
    "Cat": "criterion not met"
  }
]

Req: API: above_or_equal(metric=protein stability index, cutoff=3) for item GSSASSRKAHGLNAKQL [POP1]
Resp: criterion met

Req: API: above_or_equal(metric=protein stability index, cutoff=3) for item SDIESLEALMDILLCYQ [SRB8]
Resp: criterion not met

Req: API: above_or_equal(metric=protein stability index, cutoff=3) for item DLPISSTDNEAITISNS [SMC1]
Resp: criterion not met

Req: API: above_or_equal(metric=protein stability index, cutoff=3) for item VLVSMGSSNKAVVQTVK [YJL039C/NUP192]
Resp: criterion not met

Req: API: above_or_equal(metric=protein stability index, cutoff=3) for item ELADLPKLKRIGLVKCT [GRR1]
Resp: criterion not met

----------
# Experiment description: protein stability index of a GFP-peptide fusion (yeast GPS) (PSI 1-4); higher = more stable; sorted into four equal gates, so the index is relative within each strain
# Details: doa10∆
protein stability index: recorded values
// response body must contain only the number

Here are 10 sequences together with their reported answers.
[
  {
    "Query sequence": "ERVPKTQLDKLRPRKDS [SMB1]",
    "Readout number": 3.1
  },
  {
    "Query sequence": "DQITKMKDRLVEWNDQV [RPN9]",
    "Readout number": 3.35
  },
  {
    "Query sequence": "LVDSLATFTSIELTSYE [RPN7]",
    "Readout number": 1.57
  },
  {
    "Query sequence": "CEISGSIEQLRNVVEDI [BRN1]",
    "Readout number": 3.25
  },
  {
    "Query sequence": "VKLTYNSPSSALRALQE [YDL088C/ASM4]",
    "Readout number": 2.42
  },
  {
    "Query sequence": "IMYQQMLKYRRLFIGDQ [SNF2]",
    "Readout number": 1.45
  },
  {
    "Query sequence": "KPGSIDAISQVINIAKA [FAS1]",
    "Readout number": 2.14
  },
  {
    "Query sequence": "PFLHLRKKTPAGDWKYD [FAS2]",
    "Readout number": 3.2
  },
  {
    "Query sequence": "FLDSVHKQGSSYVAVLG [POP7]",
    "Readout number": 2.6
  },
  {
    "Query sequence": "QIYGFEGLNQRNQVQTE [YGR119C/NUP57]",
    "Readout number": 3.16
  }
]

Req: I am curious: what protein stability index value has been reported for FSIFNYFKMFPASKHDK [RPC34] ?
Resp: 3.28

Req: I am curious: what protein stability index value has been reported for NNDFKLSIDKVLKKPNR [RET1] ?
Resp: 2.06

Req: I am curious: what protein stability index value has been reported for REMRRKVYAQLLESYKT [RPN7] ?
Resp: 2.36

Req: I am curious: what protein stability index value has been reported for SFLKEGDLLNAEVQSLF [RRP4] ?
Resp: 2.57

Req: I am curious: what protein stability index value has been reported for NRYAYVLSSLMFANMKV [LRP1] ?
Resp: 2.47

Req: I am curious: what protein stability index value has been reported for DSTIGNSKVDMKYDIFA [IRR1] ?
Resp: 2.82

----------
# Experiment description: protein stability index of a GFP-peptide fusion (yeast GPS) (PSI 1-4); higher = more stable; sorted into four equal gates, so the index is relative within each strain
# Details: doa10∆
Observed property: protein stability index
// response body must contain only the number

Here are 3 sequences together with their reported answers.
[
  {
    "Query sequence": "LPLLYNFNPDNGFAPIS [FAS1]",
    "protein stability index": 2.03
  },
  {
    "Query sequence": "DVEVDDDFTNELKAELD [SEM1]",
    "protein stability index": 3.25
  },
  {
    "Query sequence": "CWLSNIDIQTQDLNQRF [RRI1]",
    "protein stability index": 2.72
  }
]

Req: I am curious: what protein stability index value has been reported for GGFTAYGGADYGEATSP [RPO21] ?
Resp: 1.79

Req: I am curious: what protein stability index value has been reported for GTQMTLKTFHFAGVASM [RPO31] ?
Resp: 1.63

Req: I am curious: what protein stability index value has been reported for PLPAVFSAPIRPDIVHT [RPL4A] ?
Resp: 1.96

Req: I am curious: what protein stability index value has been reported for VTNNVEEGEFIIDLYSL [TAF14] ?
Resp: 3.38

----------
# Experiment description: protein stability index of a GFP-peptide fusion (yeast GPS) (PSI 1-4); higher = more stable; sorted into four equal gates, so the index is relative within each strain
# Details: doa10∆
protein stability index: recorded values
// response body must contain only the number

[
  {
    "Query sequence": "GIFGMDFYVVMNRPGAR [RPL11A]",
    "Readout number": 1.8
  }
]

Kindly consider the entry below.
Req: I am curious: what protein stability index value has been reported for GQMAPIGTGAFDVMIDE [RPO21] ?
Resp: 2.29

----------
# Experiment description: protein stability index of a GFP-peptide fusion (yeast GPS) (PSI 1-4); higher = more stable; sorted into four equal gates, so the index is relative within each strain
# Details: doa10∆
protein stability index: recorded values
// response body must contain only the number

Here are 5 sequences together with their reported answers.
[
  {
    "Query sequence": "YWQFNGVIALGQFVTLG [RMP1]",
    "Readout number": 3.23
  },
  {
    "Query sequence": "KQFFQMTPLLVNCLELL [PCI8]",
    "Readout number": 1.4
  },
  {
    "Query sequence": "MDDEEWRSKRIEQLFPV [RPC53]",
    "Readout number": 3.24
  },
  {
    "Query sequence": "TPSSNSNSSELEPDYQA [MED1]",
    "Readout number": 2.74
  },
  {
    "Query sequence": "KSNVIDSMLFVFGFRAN [SMC4]",
    "Readout number": 2.26
  }
]

Req: I am curious: what protein stability index value has been reported for LVQKFGGADQVTRTQQW [SWI1] ?
Resp: 3.08

Req: I am curious: what protein stability index value has been reported for DLTFKLADILKANISLE [RPO21] ?
Resp: 2.49

----------
# Experiment description: protein stability index of a GFP-peptide fusion (yeast GPS) (PSI 1-4); higher = more stable; sorted into four equal gates, so the index is relative within each strain
# Details: san1∆
protein stability index: recorded values
// response body must contain only the number

Here are 5 sequences together with their reported answers.
[
  {
    "Query sequence": "QNNNTLGGGGLFGQSQQ [YGR119C/NUP57]",
    "protein stability index": 3.18
  },
  {
    "Query sequence": "VCLMQISTRERDYLVDT [RRP6]",
    "protein stability index": 3.49
  },
  {
    "Query sequence": "NDIPQTESPLKTVDSSI [SSN2]",
    "protein stability index": 2.81
  },
  {
    "Query sequence": "AMANAPGNNIPYMNHKN [GAL11]",
    "protein stability index": 2.6
  },
  {
    "Query sequence": "FVIPALPAAVSKSLQES [RPC82]",
    "protein stability index": 2.58
  }
]

Req: I am curious: what protein stability index value has been reported for EFTLFMDIAERIAVLHQ [YGL172W/NUP49] ?
Resp: 2.24

Req: I am curious: what protein stability index value has been reported for DMAKLKKMMNTSDSEST [SWI3] ?
Resp: 1.94

----------
# Experiment description: protein stability index of a GFP-peptide fusion (yeast GPS) (PSI 1-4); higher = more stable; sorted into four equal gates, so the index is relative within each strain
# Details: san1∆
Observed property: protein stability index
// response body must contain only the number

Here are 10 sequences together with their reported answers.
[
  {
    "Query sequence": "MSPFLRKVVKPSSLNSD [SRB4]",
    "protein stability index": 2.03
  },
  {
    "Query sequence": "EYTINLHKRLHGVSFKK [RPL31A]",
    "protein stability index": 2.14
  },
  {
    "Query sequence": "KTFKNPKYESLKLEYYN [RPN5]",
    "protein stability index": 1.09
  },
  {
    "Query sequence": "RILKLGTQLATLKNRGL [YGR119C/NUP57]",
    "protein stability index": 2.65
  },
  {
    "Query sequence": "SVPLRKGDRALLVKLSK [BRR2]",
    "protein stability index": 3.06
  },
  {
    "Query sequence": "KFFRVKYENKISTVIEV [SMC3]",
    "protein stability index": 1.09
  },
  {
    "Query sequence": "QEIFDANVQRLKEYQSK [RPL13A]",
    "protein stability index": 2.93
  },
  {
    "Query sequence": "GLKRSQLDEFKNKYLKD [SWP82]",
    "protein stability index": 2.89
  },
  {
    "Query sequence": "IINKLIHIQSKENYPWE [POP3]",
    "protein stability index": 1.81
  },
  {
    "Query sequence": "LTSQAPQTTQMFQSQSQ [YDL088C/ASM4]",
    "protein stability index": 3.08
  }
]

Req: I am curious: what protein stability index value has been reported for ATNTFGSNQQSSTGGGL [YGR119C/NUP57] ?
Resp: 3.15

Req: I am curious: what protein stability index value has been reported for LRLVDDDENNPSHYPHP [RRP6] ?
Resp: 2.77

Req: I am curious: what protein stability index value has been reported for NNGSKDHGDGILLIDSE [RPN9] ?
Resp: 3.38

Req: I am curious: what protein stability index value has been reported for PRVSNQSNEDTFLPSYM [RRI2] ?
Resp: 3.14

Req: I am curious: what protein stability index value has been reported for NLMILNTKVPVDIVNQW [YML103C/NUP188] ?
Resp: 1.84

Req: I am curious: what protein stability index value has been reported for EDKFLYGDGNGKGDNDN [SWI3] ?
Resp: 3.4

Req: I am curious: what protein stability index value has been reported for PFGVSTIFGGVDKNGAH [PRE10] ?
Resp: 2.73

Req: I am curious: what protein stability index value has been reported for LATPVQFELLSRRWRQR [BRR2] ?
Resp: 1.81

Req: I am curious: what protein stability index value has been reported for DLIHKSEAFPSLQSCSV [SMC4] ?
Resp: 2.47

Req: I am curious: what protein stability index value has been reported for SDREMAALIASKVYYNL [RPN2] ?
Resp: 1.5

Req: I am curious: what protein stability index value has been reported for TLFSSIEPQVINYLALN [ECM29] ?
Resp: 2.29

Req: I am curious: what protein stability index value has been reported for IEKMSTIVQLCKKKEMS [YIL149C/MLP2] ?
Resp: 1.59

Req: I am curious: what protein stability index value has been reported for DEPMTTFYKCVNCGHRW [RPC11] ?
Resp: 2.17

Req: I am curious: what protein stability index value has been reported for KKVMPAIVVRQAKSWRR [RPL23A] ?
Resp: 2.64

Reference source: the supplement of paper PMC9732359
